FYI, the data here is from paper PMC9592910.

Assignment: determine reported MRT for the given compounds.
Test: Pharmacokinetics/tissue distribution of GQD constituents in the colons of mice after oral GQD
Format: in vivo, Kunming mice
Settings: both, Kunming, mouse, colon (homogenate); colon, mice, oral GQD extract 6.1 g/kg
Answer with the figure and its unit, nothing else.

For the compound CC1(C)[C@@H](O[C@H]2O[C@H](C(=O)O)[C@@H](O)[C@H](O)[C@H]2O[C@@H]2O[C@H](C(=O)O)[C@@H](O)[C@H](O)[C@H]2O)CC[C@]2(C)[C@H]3C(=O)C=C4[C@@H]5C[C@@](C)(C(=O)O)CC[C@]5(C)CC[C@@]4(C)[C@]3(C)CC[C@@H]12 , what MRT is on record?
4.8 h

For the compound CC1(C)[C@@H](O)CC[C@]2(C)[C@H]3C(=O)C=C4[C@@H]5C[C@@](C)(C(=O)O)CC[C@]5(C)CC[C@@]4(C)[C@]3(C)CC[C@@H]12 , what MRT is on record?
7 h

For the compound COc1ccc2cc3[n+](cc2c1OC)CCc1cc2c(cc1-3)OCO2 , what MRT is on record?
6 h

For the compound COc1c(O)cc(O)c2c(=O)cc(-c3ccccc3)oc12 , what MRT is on record?
6.1 h

For the compound O=C(O)[C@H]1O[C@@H](Oc2cc3oc(-c4ccccc4)cc(=O)c3c(O)c2O)[C@H](O)[C@@H](O)[C@@H]1O , what MRT is on record?
9.9 h

###

Assay: Pharmacokinetics/tissue distribution of GQD constituents in the livers of mice after oral GQD
Format: in vivo, Kunming mice
Conditions: both, Kunming, mouse, in vivo; liver, mice, oral GQD extract 6.1 g/kg; read-out: Tmax
endpoint: Tmax (min)
Write the number in min without appending the unit.

For the molecule O=c1c(-c2ccc(O)cc2)coc2cc(O[C@@H]3O[C@H](CO)[C@@H](O)[C@H](O)[C@H]3O)ccc12 , what Tmax is on record?
30

###

Assay: Pharmacokinetics of GQD constituents in the portal vein of mice after oral GQD
Format: in vivo, Kunming mice
Conditions: both, Kunming, mouse, in vivo; portal vein plasma, mice, oral GQD extract 6.1 g/kg; read-out: AUC0–24 h
endpoint: AUC(0-t) (ng·h/mL)
Write the number in ng·h/mL without appending the unit.

For the compound O=c1c(-c2ccc(O)cc2)coc2cc(O[C@@H]3O[C@H](CO)[C@@H](O)[C@H](O)[C@H]3O)ccc12 , what AUC(0-t) is on record?
151

###

Experiment: Pharmacokinetics of GQD constituents in the systemic circulation of mice after oral GQD
Assay type: in vivo, Kunming mice
Conditions: both, Kunming, mouse, in vivo; systemic circulation plasma, mice, oral GQD 6.1 g/kg; read-out: T1/2 (converted)
endpoint: half-life (min)
Write the number in min without appending the unit.

For the compound O=c1c(-c2ccc(O)cc2)coc2cc(O[C@@H]3O[C@H](CO)[C@@H](O)[C@H](O)[C@H]3O)ccc12 [Daidzin, daidzin] , what half-life is on record?
108

###

Assay: Pharmacokinetics of GQD constituents in the portal vein of mice after oral GQD
Assay type: in vivo, Kunming mice
Conditions: both, Kunming, mouse, in vivo; portal vein plasma, mice, oral GQD extract 6.1 g/kg; read-out: T1/2 (converted)
Procedure: Fifty-four Kunming mice were randomly divided into nine groups according to body weight and gender (3 male and three female in each group). […] After pretreatment, the concentrations of 19 major constituents of GQD in each sample were measured by the validated LC-MS/MS method (see “2.3”). Then the C-T curves of the constituents in the plasma and the tissue homogenates were respectively drawn and their pharmacokinetic parameters were respectively calculated. […]
endpoint: half-life (h)
Write the number in h without appending the unit.

For the compound O=c1c(-c2ccc(O)cc2)coc2cc(O[C@@H]3O[C@H](CO)[C@@H](O)[C@H](O)[C@H]3O)ccc12 , what half-life is on record?
1.8

###

Assignment: determine reported Tmax for the given molecules.
Assay: Pharmacokinetics of GQD constituents in the systemic circulation of mice after oral GQD
Format: in vivo, Kunming mice
Conditions: both, Kunming, mouse, systemic circulation plasma, po, […], systemic circulation plasma, mice, oral GQD […]; read-out: Tmax
Write the number in h without appending the unit.

For the molecule O=C(O)[C@H]1O[C@@H](Oc2cc3oc(-c4ccccc4)cc(=O)c3c(O)c2O)[C@H](O)[C@@H](O)[C@@H]1O , what Tmax is on record?
4

For the molecule COc1ccc2c(c1O)-c1c(O)c(OC)cc3c1[C@H](C2)[N+](C)(C)CC3 , what Tmax is on record?
0.5

For the molecule CC1(C)[C@@H](O)CC[C@]2(C)[C@H]3C(=O)C=C4[C@@H]5C[C@@](C)(C(=O)O)CC[C@]5(C)CC[C@@]4(C)[C@]3(C)CC[C@@H]12 , what Tmax is on record?
4

For the molecule O=c1cc(-c2ccccc2)oc2cc(O)c(O)c(O)c12 , what Tmax is on record?
4

For the molecule COc1c(O)cc(O)c2c(=O)cc(-c3ccccc3)oc12 , what Tmax is on record?
2

For the molecule COc1ccc2cc3[n+](cc2c1OC)CCc1cc2c(cc1-3)OCO2 , what Tmax is on record?
1

For the molecule COc1cc2c(cc1O)CC[n+]1cc3c(OC)c(OC)ccc3cc1-2 , what Tmax is on record?
0.08

###

Test: Pharmacokinetics/tissue distribution of GQD constituents in the colons of mice after oral GQD
Format: in vivo, Kunming mice
Settings: both, Kunming, mouse, colon (homogenate); colon, mice, oral GQD extract 6.1 g/kg
endpoint: MRT (h)
Write the number in h without appending the unit.

For the compound COc1ccc2c(c1O)-c1c(O)c(OC)cc3c1[C@H](C2)[N+](C)(C)CC3 , what MRT is on record?
5

For the compound COc1ccc2cc3[n+](cc2c1O)CCc1cc2c(cc1-3)OCO2 , what MRT is on record?
10.1

For the compound O=c1cc(-c2ccccc2)oc2cc(O)c(O)c(O)c12 , what MRT is on record?
5.8

For the compound COc1cc2c(cc1O)CC[n+]1cc3c(OC)c(OC)ccc3cc1-2 , what MRT is on record?
6.2

For the compound O=c1c(-c2ccc(O)cc2)coc2c([C@@H]3O[C@H](CO)[C@@H](O)[C@H](O)[C@H]3O)c(O)ccc12 , what MRT is on record?
5.9

###

Experiment: Pharmacokinetics/tissue distribution of GQD constituents in the colons of mice after oral GQD
Type: in vivo, Kunming mice
Settings: colon, mice, oral GQD extract […]
endpoint: T1/2 (h)
Write the number in h without appending the unit.

For the compound CC1(C)[C@@H](O[C@H]2O[C@H](C(=O)O)[C@@H](O)[C@H](O)[C@H]2O[C@@H]2O[C@H](C(=O)O)[C@@H](O)[C@H](O)[C@H]2O)CC[C@]2(C)[C@H]3C(=O)C=C4[C@@H]5C[C@@](C)(C(=O)O)CC[C@]5(C)CC[C@@]4(C)[C@]3(C)CC[C@@H]12 [Glycyrrhizic acid, glycyrrhizic acid] , what T1/2 is on record?
3.3

For the compound O=c1c(-c2ccc(O)cc2)coc2c([C@@H]3O[C@H](CO)[C@@H](O)[C@H](O)[C@H]3O)c(O)ccc12 [Puerarin, puerarin] , what T1/2 is on record?
1.3

For the compound COc1c(O)cc(O)c2c(=O)cc(-c3ccccc3)oc12 [Wogonin, wogonin] , what T1/2 is on record?
3.2

For the compound O=c1cc(-c2ccccc2)oc2cc(O)c(O)c(O)c12 [Baicalein, baicalein] , what T1/2 is on record?
2.6

For the compound CC1(C)[C@@H](O)CC[C@]2(C)[C@H]3C(=O)C=C4[C@@H]5C[C@@](C)(C(=O)O)CC[C@]5(C)CC[C@@]4(C)[C@]3(C)CC[C@@H]12 [Glycyrrhetinic acid, glycyrrhetinic acid] , what T1/2 is on record?
4.4

For the compound COc1cc2c(cc1OC)-c1cc3ccc(OC)c(OC)c3c[n+]1CC2 [Palmatine, palmatine] , what T1/2 is on record?
3.8

For the compound O=C1C[C@@H](c2ccc(O)cc2)Oc2cc(O)ccc21 [Liquiritigenin, liquiritigenin] , what T1/2 is on record?
3.4

###

Assay: Pharmacokinetics/tissue distribution of GQD constituents in the colons of mice after oral GQD
Type: in vivo, Kunming mice
Conditions: both, Kunming, mouse, colon (homogenate); colon, mice, oral GQD extract 6.1 g/kg
Assignment: determine reported Cmax for the given molecules.
Write the number in ng/g without appending the unit.

For the molecule O=c1cc(-c2ccccc2)oc2cc(O)c(O)c(O)c12 , what Cmax is on record?
1920

For the molecule COc1ccc2c(c1O)-c1c(O)c(OC)cc3c1[C@H](C2)[N+](C)(C)CC3 , what Cmax is on record?
2150

For the molecule COc1ccc2cc3[n+](cc2c1O)CCc1cc2c(cc1-3)OCO2 , what Cmax is on record?
293

For the molecule COc1c(O)cc(O)c2c(=O)cc(-c3ccccc3)oc12 , what Cmax is on record?
535

For the molecule O=C(O)[C@H]1O[C@@H](Oc2cc3oc(-c4ccccc4)cc(=O)c3c(O)c2O)[C@H](O)[C@@H](O)[C@@H]1O , what Cmax is on record?
3460

For the molecule COc1cc2c(cc1O)CC[n+]1cc3c(OC)c(OC)ccc3cc1-2 , what Cmax is on record?
2100

For the molecule COc1ccc2cc3[n+](cc2c1OC)CCc1cc2c(cc1-3)OCO2 , what Cmax is on record?
6230

For the molecule CC1(C)[C@@H](O[C@H]2O[C@H](C(=O)O)[C@@H](O)[C@H](O)[C@H]2O[C@@H]2O[C@H](C(=O)O)[C@@H](O)[C@H](O)[C@H]2O)CC[C@]2(C)[C@H]3C(=O)C=C4[C@@H]5C[C@@](C)(C(=O)O)CC[C@]5(C)CC[C@@]4(C)[C@]3(C)CC[C@@H]12 , what Cmax is on record?
2010

For the molecule CC1(C)[C@@H](O)CC[C@]2(C)[C@H]3C(=O)C=C4[C@@H]5C[C@@](C)(C(=O)O)CC[C@]5(C)CC[C@@]4(C)[C@]3(C)CC[C@@H]12 , what Cmax is on record?
1830

For the molecule O=c1c(-c2ccc(O)cc2)coc2c([C@@H]3O[C@H](CO)[C@@H](O)[C@H](O)[C@H]3O)c(O)ccc12 , what Cmax is on record?
61600
